Can you tell me Papp for the items I'm about to list?
assay: in vitro; details: human, Caco-2, Caco-2 (cm/sec)
*1 amine or outer side, *2 acyl side, *3 side chain or, on linkers, in order; H or OH if unused. Where a SMILES comes first, the peptide text is derived from it. Bridges are numbered along the chain shown (N, C = ends). [ ]: non-standard residue; d: D form. The star is where a group is joined. NMeHph(3-OMe-4-CONHMe) = CNC(=O)c1ccc(CC[C@H](NC)C(=O)O)cc1OC; hPhe(3-OMe,4-CONHMe) = CNC(=O)c1ccc(CC[C@H](N)C(=O)O)cc1OC; Phe(3-CONHMe,4-OMe) = CNC(=O)c1cc(C[C@H](N)C(=O)O)ccc1OC; X1 = COc1cc(C[C@H](N[*:1])C(=O)[*:2])ccc1C(=O)NO; Phe(4-COOH) = N[C@@H](Cc1ccc(C(=O)O)cc1)C(=O)O; NMePhe(3-Cl) = CN[C@@H](Cc1cccc(Cl)c1)C(=O)O; X9 = O=C([C@@H](CN[*:1])COCCO)[*:2]; NMeF = CN[C@@H](Cc1ccccc1)C(=O)O; NMeGABA = CN(CCCC(=O)[*:2])[*:1]; NMeD = CN[C@@H](CC(=O)O)C(=O)O; NMeL = CN[C@@H](CC(C)C)C(=O)O; NMeV = CN[C@H](C(=O)O)C(C)C; Piperidide = C1CCN(*)CC1; dNMeA = CN[C@H](C)C(=O)O; CH2CMe2OH = CC(C)(O)C*; NBuGly = CCCCNCC(=O)O; NPrGly = CCCNCC(=O)O; N(OH)Me = CN(O)*; Sar = CNCC(=O)O; tBu = CC(C)(C)*

State its Papp for this compound: CNC(=O)c1ccc(CC[C@@H]2NC(=O)[C@H](CC(C)C)N(C)C(=O)[C@H]([C@@H](C)O)NC(=O)[C@H](CC(C)C)N(C)C(=O)[C@H](CC(C)C)N(C)C(=O)[C@@H](C)N(C)C(=O)C[C@@H](C(=O)N3CCCCC3)NC(=O)[C@H](CC(C)C)N(C)C2=O)cc1OC [AP262] ([dNMeA][NMeL][NMeL]T[NMeL][hPhe(3-OMe,4-CONHMe)][NMeL]D-Piperidide; lactam N-8)
0.17 ×10⁻⁶ cm/s

For the compound CC(C)C[C@@H]1NC(=O)[C@H](Cc2ccccc2)N(C)C(=O)[C@@H](C(C)C)NC(=O)C[C@@H](C(=O)N2CCCCC2)NC(=O)[C@H](CC(C)C)N(C)C(=O)[C@H](Cc2cccc(Cl)c2)N(C)C(=O)[C@H](COCC(C)(C)O)NC(=O)[C@H](CC(C)C)N(C)C(=O)CN(C)C(=O)[C@H]([C@@H](C)O)NC(=O)[C@H](CC(C)C)N(C)C1=O [AP02] ([dV][NMeF]L[NMeL]T[Sar][NMeL]S(CH2CMe2OH)[NMePhe(3-Cl)][NMeL]D-Piperidide; lactam N-11) , give its measured Papp value.
1.3 ×10⁻⁶ cm/s

Assign Papp to the following record: CCCCN1CC(=O)N(C)[C@@H](CC(C)C)C(=O)N(C)[C@@H](CC(C)C)C(=O)N[C@@H](COC(C)(C)C)C(=O)N(C)[C@@H](CC(C)C)C(=O)N[C@H](C(=O)N2CCCCC2)CC(=O)N(C)CC(=O)N(C)[C@@H](Cc2cccc(Cl)c2)C(=O)N[C@@H](Cc2ccc(OC)c(C(=O)NC)c2)C(=O)N(C)[C@@H](CC(C)C)C(=O)N[C@@H]([C@@H](C)O)C1=O [AP41] ([Sar][NMePhe(3-Cl)][Phe(3-CONHMe,4-OMe)][NMeL]T[NBuGly][NMeL][NMeL]S(tBu)[NMeL]D-Piperidide; lactam N-11)
0.45 ×10⁻⁶ cm/s

Output measured Papp for this item: CC[C@H](C)[C@@H]1NC(=O)[C@H](CC(C)C)N(C)C(=O)CCCN(C)C(=O)C[C@@H](C(=O)N2CCCCC2)NC(=O)[C@H](CC(C)C)N(C)C(=O)[C@H](CC(C)C)N(C)C(=O)[C@H]([C@@H](C)O)NC(=O)[C@H](CC(C)C)N(C)C(=O)[C@H](Cc2ccc(C(=O)N(C)O)cc2)NC(=O)[C@H](CC(C)C)N(C)C(=O)[C@H](Cc2ccccc2)N(C)C1=O [AP251] ([NMeGABA][NMeL]I[NMeF][NMeL][Phe(4-COOH)](N(OH)Me)[NMeL]T[NMeL][NMeL]D-Piperidide; lactam N-11)
0.03 ×10⁻⁶ cm/s

Answer with the recorded Papp for the compound listed here: CCCCN1CC(=O)N(C)[C@@H](Cc2ccccc2)C(=O)N(C)[C@@H](CC(C)C)C(=O)N[C@@H](COC(C)(C)C)C(=O)N(C)[C@@H](CC(C)C)C(=O)N[C@H](C(=O)N2CCCCC2)CC(=O)N(C)CC(=O)N(C)[C@@H](CCc2ccc(C(=O)NC)c(OC)c2)C(=O)N[C@@H](C(C)C)C(=O)N(C)[C@@H](CC(C)C)C(=O)N[C@@H]([C@@H](C)O)C1=O [AP231] ([Sar][NMeHph(3-OMe-4-CONHMe)]V[NMeL]T[NBuGly][NMeF][NMeL]S(tBu)[NMeL]D-Piperidide; lactam N-11)
1 ×10⁻⁶ cm/s

Give the value of Papp reported for the following: CC(C)C[C@H]1C(=O)N[C@@H]([C@@H](C)O)C(=O)N(C)CC(=O)N(C)[C@@H](C(C)C)C(=O)N[C@@H](Cc2ccccc2)C(=O)N(C)[C@@H](Cc2cccc(Cl)c2)C(=O)N(C)[C@@H](CC(C)C)C(=O)N(C)[C@H](C(=O)N2CCCCC2)CC(=O)N2CCC[C@@H]2C(=O)N[C@@H](Cc2ccccc2)C(=O)N[C@@H](COC(C)(C)C)C(=O)N1C [pd163] ([dP]FS(tBu)[NMeL]T[Sar][NMeV]F[NMePhe(3-Cl)][NMeL][NMeD]-Piperidide; lactam N-11)
1.7 ×10⁻⁶ cm/s

Name the recorded Papp of the compound listed here: CCCCN1CC(=O)N(C)[C@@H](CC(C)C)C(=O)N(C)[C@@H](CC(C)C)C(=O)N[C@@H](COC(C)(C)C)C(=O)N(C)[C@@H](CC(C)C)C(=O)N[C@H](C(=O)N2CCCCC2)CC(=O)N(C)CC(=O)N(C)[C@@H](Cc2cccc(Cl)c2)C(=O)N[C@@H](Cc2ccc(C(=O)NO)c(OC)c2)C(=O)N(C)[C@@H](CC(C)C)C(=O)N[C@@H]([C@@H](C)O)C1=O [AP260] ([Sar][NMePhe(3-Cl)][X1][NMeL]T[NBuGly][NMeL][NMeL]S(tBu)[NMeL]D-Piperidide; lactam N-11)
0.04 ×10⁻⁶ cm/s

Indicate the recorded Papp value for this compound: CCCCN1CC(=O)N(C)[C@@H](CC(C)C)C(=O)NC[C@@H](COCCO)C(=O)N(C)[C@@H](Cc2ccccc2)C(=O)N(C)[C@@H](CC(C)C)C(=O)N[C@H](C(=O)N2CCCCC2)CC(=O)N[C@H](CC(C)C)C(=O)N(C)[C@@H](CC(C)C)C(=O)N[C@@H](Cc2ccccc2)C(=O)N(C)[C@@H](CC(C)C)C(=O)N[C@@H]([C@@H](C)O)C1=O [AP128] ([dL][NMeL]F[NMeL]T[NBuGly][NMeL][X9][NMeF][NMeL]D-Piperidide; lactam N-11)
0.78 ×10⁻⁶ cm/s

Note Papp for the compound shown: CCCN1CC(=O)N(C)[C@@H](Cc2ccccc2)C(=O)N[C@@H]([C@@H](C)CC)C(=O)N(C)[C@@H](Cc2ccccc2)C(=O)N[C@@H]([C@@H](C)O)C(=O)N(C)CC(=O)N(C)[C@@H](Cc2ccccc2)C(=O)N(C)[C@@H](CC(C)C)C(=O)N[C@@H](COC(C)(C)C)C(=O)N(C)[C@@H](C(C)C)C(=O)N[C@H](C(=O)N2CCCCC2)CC1=O [pd195] ([NPrGly][NMeF]I[NMeF]T[Sar][NMeF][NMeL]S(tBu)[NMeV]D-Piperidide; lactam N-11)
5 ×10⁻⁶ cm/s
